# credit: ChEMBL document CHEMBL3433997

A collection of compounds and their measured inhibition
- measured-on: Hexose transporter 1 (Plasmodium falciparum) (UniProt O97467)
- assay-protocol: ST_JUDE_LEISH: Cytotoxicity at 2uM final concentration against transgenic Leishmania Mexicana promastigotes LmPfHT that are glucose transport deficient and complemented with the Plasmodium falciparum hexose transporter. Activity is measured by DNA content using SYBR green in vitro
- Assay type: functional
Unit % implied. Number only.

Cc1cc(CN2CCCN(c3ccc4c(c3)CCN(Cc3ccc(-c5ncc[nH]5)cc3)CC4)CC2)n(C)n1    -1.47
CC(C)CNCc1cccc(-c2cccc(CN(CCCN3CCN(C)CC3)C(=O)NC3CCCCC3)c2)c1    0.99
C=C(NC(=O)C1CCCCC1)C(=O)OC    2.29

Provide inhibition, tested on Hexose transporter 1 (Plasmodium falciparum) (UniProt O97467), for `CC(C)(C)C1=CC(=NNC(=O)c2ccncc2)C=C(C(C)(C)C)C1=O` . 14

Provide inhibition, tested on Hexose transporter 1 (Plasmodium falciparum) (UniProt O97467), for CCCOc1cc2c(cc1OCCC)C(C=Cc1ccc(Cl)cc1Cl)=NC(C)C2 (configuration not stated) . 96.7

Provide inhibition, tested on Hexose transporter 1 (Plasmodium falciparum) (UniProt O97467), for `Cc1cc(C(F)(F)F)n2nc(C(=O)N(Cc3cncn3Cc3ccccc3F)CC3CC3)cc2n1` . -0.8

Provide inhibition, tested on Hexose transporter 1 (Plasmodium falciparum) (UniProt O97467), for `CN(C)c1ccc(-c2ccc(C(=O)NC3CCN(Cc4ccccc4F)CC3)s2)cc1` . 0.05
